Numbers sourced from PubChem BioAssay (Tox21).

- TEST: qHTS assay to identify small molecule antagonists of the androgen receptor (AR) signaling pathway - cell viability counter screen (AID 743033; further: nearly all actives have a fitted effect of over 45% in size)
- TEST_PARAMETERS: AR-bla HEK293 viability, CellTiter-Glo luminescence, 16 h; series mostly up to 58.5 µM
- From the text: National Center for Advancing Translational Sciences [NCATS] NIH Chemical Genomics Center [NCGC] U.S. Environmental Protection Agency [EPA] National Institutes of Environmental Health Sciences [NIEHS] National Toxicology Program [NTP] U.S. Food and Drug Administration [FDA] Androgen receptor (AR), a nuclear hormone receptor, plays a critical role in AR-dependent prostate cancer and other androgen related diseases. […]
Records with an inconclusive call do not appear. The source made the active and inactive calls. The call rests on the fitted dose curve; in most records, active means well fitted cell-killing curve with a large enough effect in the repeat runs; inconclusive means weak or mixed curves; inactive means no such curve, though single readings can be large or run the other way.
Use one of these outcomes when replying: active, inactive

Tell me the recorded outcome of this test for C[N+](C)=CCl .
inactive

Returns: the outcome recorded for CCNc1nc(NC(C)C)nc(OC)n1 in this assay.
inactive

Query: recorded result category for O=C(NCO)NCO in this test
inactive

Fill in: this test's call for COc1ccc(C(=O)N2CCCC2=O)cc1 is ___
active

Returns: the outcome recorded for C=C(C)CN(CC)c1c([N+](=O)[O-])cc(C(F)(F)F)cc1[N+](=O)[O-] in this assay.
inactive

I would be grateful if you could indicate the recorded call for O=C1OC(c2ccc(O)c(S(=O)(=O)O)c2)(c2ccc(O)c(S(=O)(=O)O)c2)c2c(Br)c(Br)c(Br)c(Br)c21 .
inactive

Which result was noted for this compound in the test: CCOP(=S)(OCC)Oc1ncn(-c2ccccc2)n1
inactive
